- target-under-test: T1, huNABA-avi-his (hybrid protein N-A1-B3-A2: N and A1 domains of human BGP, B3 domain of human CEA, A2 domain … (human, biotinylated at the avi tag (in vivo, co-transfected biotin ligase)))
- T1 construct: also called NABA-avi-his reagent; biotinylated NABA
- T1 chain: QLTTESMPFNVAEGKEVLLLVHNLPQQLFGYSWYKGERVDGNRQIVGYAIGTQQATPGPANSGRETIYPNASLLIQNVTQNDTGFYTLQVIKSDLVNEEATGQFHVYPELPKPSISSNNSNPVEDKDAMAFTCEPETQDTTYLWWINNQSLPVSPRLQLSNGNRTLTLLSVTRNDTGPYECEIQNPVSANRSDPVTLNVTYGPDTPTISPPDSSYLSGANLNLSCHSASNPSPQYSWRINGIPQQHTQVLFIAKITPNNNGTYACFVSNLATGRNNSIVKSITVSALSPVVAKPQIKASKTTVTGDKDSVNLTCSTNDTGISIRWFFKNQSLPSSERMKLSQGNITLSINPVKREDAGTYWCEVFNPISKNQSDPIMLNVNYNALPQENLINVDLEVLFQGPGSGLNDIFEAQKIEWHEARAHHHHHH
- experiment-description: Biacore, column Affinity, CDR-L1 and CDR-L2 rows; antigen not named on the sheet, NABA-avi-his per paragraph 230
readout-type: pKd
Remember the convention: pKd equals -log10 of concentration in molar.

pAC19 (2C6) (Fab, V domains shown) VH: QVQLVQSGSELKKPGASVKVSCKASGYTFTEFGMNWVRQAPGQGLEWMGWINTKTGEATYVEEFKGRFVFSLDTSVSTAYLQISSLKAEDTAVYYCARWDFYDYVEAMDYWGQGTTVTVSS VL: DIQMTQSPSSLSASVGDRVTITCKASKNVGTNVAWYQQKPGKAPKPLIYLASYPQIGVPSRFSGSGSGTDFTLTISSLQPEDFATYYCHQYYTYPLFTFGQGTKLEIK | 6.15
3A1 (Fab, V domains shown, also called pAC21 (3A1); 3A1 wt/lc) VH: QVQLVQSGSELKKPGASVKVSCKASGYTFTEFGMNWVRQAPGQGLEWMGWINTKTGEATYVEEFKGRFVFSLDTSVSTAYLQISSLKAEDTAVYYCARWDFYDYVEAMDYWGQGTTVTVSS VL: DIQMTQSPSSLSASVGDRVTITCKASANVGNNVAWYQQKPGKAPKLLIYLASNRSGGVPSRFSGSGSGTDFTLTISSLQPEDFATYYCHQYYTYPLFTFGQGTKLEIK | 6.60

Then this binder:
pKd measured on L2D2 (Fab, V domains shown) VH: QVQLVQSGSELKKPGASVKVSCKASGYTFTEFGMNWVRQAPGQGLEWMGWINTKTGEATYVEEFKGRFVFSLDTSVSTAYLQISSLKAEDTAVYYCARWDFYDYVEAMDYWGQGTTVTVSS VL: DIQMTQSPSSLSASVGDRVTITCKASHNVGTNVAWYQQKPGKAPKLLIYSASHRYSGVPSRFSGSGSGTDFTLTISSLQPEDFATYYCHQYYTYPLFTFGQGTKLEIK = 5.65
